Reported pIC50 values, UniProtKB P33261.
Sequence (P33261 whole entry): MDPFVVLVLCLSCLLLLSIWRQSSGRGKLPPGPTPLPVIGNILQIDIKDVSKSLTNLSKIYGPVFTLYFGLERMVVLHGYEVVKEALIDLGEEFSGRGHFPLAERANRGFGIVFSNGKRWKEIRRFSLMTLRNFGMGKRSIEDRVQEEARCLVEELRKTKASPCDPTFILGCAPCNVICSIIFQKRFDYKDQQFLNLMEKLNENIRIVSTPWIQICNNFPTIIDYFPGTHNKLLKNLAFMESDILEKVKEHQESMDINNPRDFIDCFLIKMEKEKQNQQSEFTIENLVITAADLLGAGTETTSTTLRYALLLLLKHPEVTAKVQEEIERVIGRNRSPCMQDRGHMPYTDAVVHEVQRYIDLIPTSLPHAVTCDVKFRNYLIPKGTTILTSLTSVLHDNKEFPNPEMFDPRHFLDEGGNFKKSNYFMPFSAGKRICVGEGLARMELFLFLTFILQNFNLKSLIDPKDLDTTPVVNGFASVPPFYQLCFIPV
pIC50: −log10 of the molar value.

compound	val
Cc1nc(C(=O)NO)sc1-c1csc(NC(=O)Cc2c(F)cccc2F)n1 [Compound I-107]	< 4.70

Pending compound:
query: Provide the documented pIC50 with UniProtKB P33261 as the system for Cc1nc(C)c(-c2csc(NC(=O)Cc3ccc(S(C)(=O)=O)cc3)n2)s1 [Compound I-17]
result: < 4.70

----------
Target: human TRPV4 (hTRPV4/CHO cells) (Homo sapiens, UniProt Q9HBA0)
Construct: expressed in transfected cells; host or cells: CHO-K1
Sequence (Q9HBA0 whole entry): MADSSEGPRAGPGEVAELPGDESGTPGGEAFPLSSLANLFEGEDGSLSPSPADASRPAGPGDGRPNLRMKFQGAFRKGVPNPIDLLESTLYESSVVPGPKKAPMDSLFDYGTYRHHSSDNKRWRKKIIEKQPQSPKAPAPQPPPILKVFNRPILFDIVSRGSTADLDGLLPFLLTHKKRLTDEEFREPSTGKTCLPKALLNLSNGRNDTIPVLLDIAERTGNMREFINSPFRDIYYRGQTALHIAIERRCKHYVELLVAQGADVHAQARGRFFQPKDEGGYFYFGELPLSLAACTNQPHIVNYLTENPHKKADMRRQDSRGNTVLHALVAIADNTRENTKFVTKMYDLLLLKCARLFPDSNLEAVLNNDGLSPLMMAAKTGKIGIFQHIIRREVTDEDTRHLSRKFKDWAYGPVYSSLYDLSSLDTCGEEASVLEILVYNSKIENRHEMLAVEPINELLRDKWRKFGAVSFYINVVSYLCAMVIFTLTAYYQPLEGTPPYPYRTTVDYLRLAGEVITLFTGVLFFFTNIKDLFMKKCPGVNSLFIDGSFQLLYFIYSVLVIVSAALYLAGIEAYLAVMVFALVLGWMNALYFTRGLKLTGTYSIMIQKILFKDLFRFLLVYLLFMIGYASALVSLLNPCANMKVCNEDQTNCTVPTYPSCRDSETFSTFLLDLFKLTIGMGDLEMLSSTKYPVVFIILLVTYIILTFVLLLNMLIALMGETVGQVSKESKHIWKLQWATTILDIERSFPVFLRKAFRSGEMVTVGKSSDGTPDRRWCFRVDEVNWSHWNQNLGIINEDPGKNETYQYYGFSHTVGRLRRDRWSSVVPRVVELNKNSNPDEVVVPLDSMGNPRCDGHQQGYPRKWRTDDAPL
Assay: Test Example 4: TRPV4 inhibitory activity (Ki value), 4α-PDD stimulation, Fluo-3 calcium fluorescence (FDSS 3000)
Assay type: cell-based
Settings: Test Example 4, 4α-PDD stimulation, read-out: Test 4 Ki
pKi: −log10 of the molar value.
parameter: pKi

Here is how some compounds turned out for pKi.
compound	assayed.target	pKi
Cc1nc(C)c(-c2csc(NC(=O)C3CCN(c4ccccc4)C3)n2)s1 (stereo not drawn)	human TRPV4 (hTRPV4/CHO cells) (Homo sapiens, UniProt Q9HBA0)	> 7.00
Cc1nc(C)c(-c2csc(NC(=O)C(C)(C)Oc3ccc(Cl)cc3)n2)s1	human TRPV4 (hTRPV4/CHO cells) (Homo sapiens, UniProt Q9HBA0)	6.00 to 7.00
Cc1nc(C)c(-c2csc(NC(=O)Cc3ccc(S(=O)(=O)C(F)(F)F)cc3)n2)s1	human TRPV4 (hTRPV4/CHO cells) (Homo sapiens, UniProt Q9HBA0)	> 7.00
Cc1nc(C)c(-c2csc(Nc3ccc(F)cc3)n2)s1	human TRPV4 (hTRPV4/CHO cells) (Homo sapiens, UniProt Q9HBA0)	6.00 to 7.00
Cc1nc(C)c(-c2csc(NC(=O)CC(C)(C)C)n2)s1	human TRPV4 (hTRPV4/CHO cells) (Homo sapiens, UniProt Q9HBA0)	6.00 to 7.00
Cc1nc(C)c(-c2csc(NC(=O)c3ccccc3)n2)s1	human TRPV4 (hTRPV4/CHO cells) (Homo sapiens, UniProt Q9HBA0)	5.52 to 6.00

query: I have this compound here, Cc1nc(C)c(-c2csc(NC(=O)[C@H]3CC[C@H](C#N)C3)n2)s1 (racemic) , and I need its recorded pKi.
result: 6.00 to 7.00

query: Give the measured pKi of Cc1nc(C)c(-c2csc(NC(=O)C(C)C)n2)s1 .
result: > 7.00

query: Requested field: pKi. Item: Cc1nc(C)c(-c2csc(NC(=O)C(C)Oc3ccc(Cl)cc3)n2)s1 (stereo not drawn)
result: 6.00 to 7.00

Reference source: patent US20170066759A1
